B1: CPEB3 Ribozyme (parent)
chain: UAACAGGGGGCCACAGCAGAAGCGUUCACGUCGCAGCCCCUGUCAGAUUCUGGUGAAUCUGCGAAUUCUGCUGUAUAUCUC

- Variants of: B1
- assay.summary: self-cleavage, relative activity (ratio to wild type); higher = more cleavage; in vitro, sequencing
Binning scheme for self-cleavage: L (below 0.3), M (0.3 to below 0.6), H (0.6 or more)

mutant.label: A20U U25A
label.class: L
//
mutant.label: C39U U80C
label.class: H
//
mutant.label: C40U U49A
label.class: L
//
mutant.label: U1C A75G
label.class: H
//
mutant.label: C29G U41C
label.class: L
//
mutant.label: C23A C81G
label.class: L
//
mutant.label: A28U U66G
label.class: H
//
mutant.label: A15G G30A
label.class: M
//
mutant.label: U1C C38A
label.class: L
//
mutant.label: A13G A35G
label.class: H
//
mutant.label: C34U U54C
label.class: M
//
mutant.label: C32U G63A
label.class: M
//
mutant.label: A56C U78C
label.class: M
//
mutant.label: A5U A65U
label.class: L

meta.source: the RNAGym collection of RNA variant scans (doi:10.1093/nar/gkz1192)
